// data source = PubChem BioAssay (NCI)

Test system: HCT-15 colon
Experiment: NCI tumour cell line growth inhibition, 48 h
quantityKind: TGI

>>> valuemeasured("Nc1nn(CC(O)CO)c(=O)s1 (stereo unspecified)")
"> 100 µM"
>>> valuemeasured("COc1ccc(/C=N\\NC(=O)Nc2cccc3ccccc23)cc1")
"> 100 µM"
>>> valuemeasured("O=C(NC12CC3CC(CC(C3)C1)C2)C(=O)c1c[nH]c2ccc([N+](=O)[O-])cc12")
"> 100 µM"
>>> valuemeasured("CCOc1ccccc1N1C(=O)C(=O)C(c2nc3ccccc3o2)/C(=N\\N)C1=O (stereo unspecified)")
"> 100 µM"
>>> valuemeasured("O=c1nc(NC(c2ccccc2)(c2ccccc2)c2ccccc2)ccn1CCO")
"> 100 µM"
>>> valuemeasured("C[n+]1c2ccccc2c(Nc2ccc(NS(=O)(=O)CCCCN=C(N)N)cc2)c2ccc(N)cc21")
"> 100 µM"
>>> valuemeasured("c1ccc(Nn2c(CCCCCCCCc3nnc(COc4ccccc4)n3Nc3ccccc3)nnc2COc2ccccc2)cc1")
"> 300 µM"
>>> valuemeasured("CC(=O)NC(C)c1ccc(N=NN2CCCC2)cc1 (stereo unspecified)")
"> 100 µM"
>>> valuemeasured("COc1ccc(/C(Cl)=C(\\C=O)c2ccccc2)cc1OC")
"> 100 µM"
>>> valuemeasured("CC(C)(C)c1cc(/C=C/C(=O)CC(=O)/C=C/c2cc(C(C)(C)C)c(O)c(C(C)(C)C)c2)cc(C(C)(C)C)c1O")
"> 50 µM"
>>> valuemeasured("O=C(NCCN1CCC(O)CC1)c1cc2c(o1)C(=O)c1ccccc1C2=O")
"0.624 µM"
>>> valuemeasured("N#Cc1ccc(Nc2cnc3ccc(N)cc3n2)cc1")
"> 100 µM"
>>> valuemeasured("NC(=O)c1ncn2c(=O)n(CCl)nnc12")
"> 100 µM"
>>> valuemeasured("CCNc1cc2c3c(c1)CCCN3CCC2")
"40.5 µM"
>>> valuemeasured("COc1ccc2nc3cc([N+](=O)[O-])ccc3c(NCCCN(CCO)CCO)c2c1")
"25.4 µM"
>>> valuemeasured("N/C(=N\\N=C\\c1cc2c(cc1Cl)OCO2)NO")
"> 100 µM"
>>> valuemeasured("CC(=O)C1COC(O)C1C (stereo unspecified)")
"44.4 µM"
>>> valuemeasured("CCCCN=C(NC#N)N(Cc1ccccc1)Cc1ccccc1")
"29.8 µM"
>>> valuemeasured("CCCOC(=O)N[C@H]1CCc2cc(OC)c(OC)c(OC)c2-c2ccc(SC)c(=O)cc21")
"12 µM"
>>> valuemeasured("c1ccc(CCN2CCN=C2Cc2ccccc2)cc1")
"> 100 µM"
>>> valuemeasured("COc1cc2c(cc1OC(=O)c1cc3ccccc3[nH]1)N=C[C@@H]1CCCN1C2=O")
"> 34.2 µM"

----------
Tested on: KM12 colon
Assay: NCI tumour cell line growth inhibition, 48 h
quantityKind: TGI

>>> valuemeasured("c1ccc(Nn2c(CCCCCCCCc3nnc(COc4ccccc4)n3Nc3ccccc3)nnc2COc2ccccc2)cc1")
"> 300 µM"
>>> valuemeasured("CCCCCC(O)(CCCCC)CCCCCCCCC1=C(O)c2ccccc2C(=O)C1=O")
"19.4 µM"
>>> valuemeasured("O=C(NN1C(=O)CSC1c1ccco1)c1ccncc1 (stereo not given)")
"> 100 µM"
>>> valuemeasured("O=C(O)C(C(=O)C(=O)C(C(=O)O)c1ccc(Cl)cc1)c1ccc(Cl)cc1 (stereo not given)")
"13.4 µM"
>>> valuemeasured("CCOC(=O)c1cc2c(cn1)[nH]c1cccc(N)c12")
"> 100 µM"
>>> valuemeasured("O=S(=O)(O)c1cc(Nc2ccnc3ccccc23)c2c(S(=O)(=O)O)cc(S(=O)(=O)O)cc2c1")
"> 100 µM"
>>> valuemeasured("CSc1nc(SC)c2c(C(N)=S)[nH]nc2n1")
"> 100 µM"
>>> valuemeasured("O=C1[C@H]2ON(c3ccccc3)C(c3ccccc3F)[C@H]2C(=O)N1c1ccc(Cc2ccc(N3C(=O)[C@@H]4ON(c5ccccc5)C(c5ccccc5F)[C@@H]4C3=O)cc2)cc1 (stereo not given in full)")
"> 100 µM"
>>> valuemeasured("CN(C)C(=S)/N=c1\\ss/c(=N\\C(=S)N(C)C)n1-c1ccc(Cl)cc1")
"> 100 µM"
>>> valuemeasured("S=c1nc2sc3c(c2c(Nc2ccc(Br)cc2)[nH]1)CCN(N1CCc2c(sc4nc(=S)[nH]c(Nc5ccc(Br)cc5)c24)C1)C3")
"> 50 µM"

----------
System: SK-MEL-28 melanoma
Assay: NCI tumour cell line growth inhibition, 48 h
quantityKind: TGI

>>> valuemeasured("O=C(O)C(C(=O)C(=O)C(C(=O)O)c1ccc(Cl)cc1)c1ccc(Cl)cc1 (configuration not stated)")
"15.7 µM"
>>> valuemeasured("O=C(O)CN(CC(=O)O)Cc1ccn(-c2cccc(-n3ccc(CN(CC(=O)O)CC(=O)O)n3)n2)n1")
"> 100 µM"
>>> valuemeasured("COc1ccc(CCNC(=O)CCCCCO)cc1OC")
"> 100 µM"
>>> valuemeasured("Clc1cc(OCC23CC4CC(CC(C4)C2)C3)nc(OCC23CC4CC(CC(C4)C2)C3)n1")
"> 100 µM"
>>> valuemeasured("NC(=O)CCC(NC(=O)c1cccc2c(=O)c3ccccc3[nH]c12)C(=O)O (configuration not stated)")
"> 100 µM"
>>> valuemeasured("C[n+]1c2ccccc2c(Nc2ccc(NS(=O)(=O)CCCCN=C(N)N)cc2)c2ccc(N)cc21")
"> 72.3 µM"
>>> valuemeasured("COc1ccc(N2C(N)=C(C#N)C(C#N)(C#N)C2c2cccc([N+](=O)[O-])c2)cc1 (configuration not stated)")
"23.6 µM"

----------
System: UO-31 renal
Assay: NCI tumour cell line growth inhibition, 48 h
In this section, each of the compounds is paired with its reported TGI.
quantityKind: TGI

>>> valuemeasured("O=c1cc(-c2ccccc2)[nH]c2c(Cl)cccc12")
"> 100 µM"
>>> valuemeasured("Cc1cccc(Cl)c1NC(=O)c1cnc(Nc2cc(N3CCOCC3)cc(N3CCOCC3)c2)s1")
"0.789 µM"
>>> valuemeasured("O=c1nc(NC(c2ccccc2)(c2ccccc2)c2ccccc2)ccn1CCO")
"> 100 µM"

----------
Entries and their TGI
System: CAKI-1 renal
Assay: NCI tumour cell line growth inhibition, 48 h
quantityKind: TGI

>>> valuemeasured("COc1ccc(NCc2cnc3nc(N)nc(N)c3c2C)cc1")
"> 100 µM"
>>> valuemeasured("O=c1oc(-c2ccccc2)cc2cccc(O)c12")
"> 81.7 µM"
>>> valuemeasured("CC1(C)N=C(N)N=C(N)N1c1ccc(CCc2ccc(Cl)cc2S(=O)(=O)F)c(Cl)c1")
"> 100 µM"

----------
Tested on: PC-3 prostate
Test: NCI tumour cell line growth inhibition, 48 h
quantityKind: TGI

>>> valuemeasured("COC(=O)c1c(O)ccc2c1c1c(n2Cc2ccccn2)C(=O)c2ccccc2C1=O")
"> 100 µM"
>>> valuemeasured("CN(C)CCCNc1cnc2cc3ccccc3cc2n1")
"45.6 µM"
>>> valuemeasured("Clc1ccc2nc(CC3CCCC3)[nH]c2c1")
"71 µM"
>>> valuemeasured("C=CCCC(On1c(-c2ccc(Cl)cc2)csc1=S)c1ccccc1 (stereo not given)")
"> 100 µM"
>>> valuemeasured("CCN(CC)CCCC(C)Nc1c2ccc(Cl)cc2nc2cc(OC)c(OC)cc12 (stereo not given)")
"6.28 µM"
>>> valuemeasured("Cc1ccc(C(=O)/C(=C\\c2ccc([N+](=O)[O-])cc2)S(=O)Cc2ccc(F)cc2)cc1 (stereo not given)")
"3.09 µM"
>>> valuemeasured("CCCCCC(O)(CCCCC)CCCCCCCCC1=C(O)c2ccccc2C(=O)C1=O")
"24.6 µM"
>>> valuemeasured("CC1CC(=O)Nc2ccc(N=NN(C)C)cc2N1C=O (stereo not given)")
"> 100 µM"
>>> valuemeasured("O=CC(Br)C(Br)c1ccccc1 (stereo not given)")
"6.75 µM"
>>> valuemeasured("CCCCNC(=S)c1ccc(OC(=O)Nc2ccc(Cl)cc2)cc1")
"> 100 µM"
